Numbers sourced from the supplement of paper PMC10307832.

Here, each record is paired with measured relative viability data.
System: NCI-H2023
assay: relative viability (nuclei count vs DMSO), 5 days (fraction); higher = more cells survive
conditions.used: first compound 4 µM
Reply briefly: the number, and no unit.

Recorded relative viability, per entry:
compound | relative viability
COc1cc(N2CCC(C(N)=O)CC2)ccc1Nc1nc(N)c(Cl)c(Nc2ccccc2S(=O)(=O)C(C)C)n1 [HG-5-88-01] + CS(=O)(=O)N1CCN(Cc2cc3nc(-c4cccc5[nH]ncc45)nc(N4CCOCC4)c3s2)CC1 [Pictilisib] (partner 1 µM) | 0.171
C[C@@H]1CN(CC(=O)Nc2ccc3c(c2)Cc2cccc(-c4cc(=O)cc(N5CCOCC5)o4)c2S3)C[C@H](C)O1 + CS(=O)(=O)N1CCN(Cc2cc3nc(-c4cccc5[nH]ncc45)nc(N4CCOCC4)c3s2)CC1 [Pictilisib] (partner 1 µM) | 0.198

// next entry
What measured relative viability goes with COc1cc(N2CCC(C(N)=O)CC2)ccc1Nc1nc(N)c(Cl)c(Nc2ccccc2S(=O)(=O)C(C)C)n1 [HG-5-88-01] + Cc1nc(Nc2ncc(C(=O)Nc3c(C)cccc3Cl)s2)cc(N2CCN(CCO)CC2)n1 [Dasatinib] (partner 0.075 µM) ?
0.207

----------
Test system: NCI-H2009
assay: relative viability (nuclei count vs DMSO), 5 days (fraction); higher = more cells survive
conditions.used: first compound 0.01 µM
Quick reference: relative viability of the listed items.
// no unit, no text: just the number

compound | relative viability
CC(C)Oc1cc(Nc2nc(N[C@@H](C)c3ccc(F)cn3)ncc2Cl)n[nH]1 [AZ23] + CCNC(=O)c1noc(-c2cc(C(C)C)c(O)cc2O)c1-c1ccc(CN2CCOCC2)cc1 [Luminespib] (partner 0.01 µM) | 1.05
CC(C)Oc1cc(Nc2nc(N[C@@H](C)c3ccc(F)cn3)ncc2Cl)n[nH]1 [AZ23] + COc1cccc2cc(-c3nc([C@H]4CC[C@H](C(=O)O)CC4)n4ncnc(N)c34)[nH]c12 [OSI-027] (partner 0.5 µM) | 0.651
CC(C)Oc1cc(Nc2nc(N[C@@H](C)c3ccc(F)cn3)ncc2Cl)n[nH]1 [AZ23] + CS(=O)(=O)N1CCN(Cc2cc3nc(-c4cccc5[nH]ncc45)nc(N4CCOCC4)c3s2)CC1 [Pictilisib] (partner 1 µM) | 0.943

Now look at this one.
I'd like to know its relative viability. The compound in question is CC(C)Oc1cc(Nc2nc(N[C@@H](C)c3ccc(F)cn3)ncc2Cl)n[nH]1 [AZ23] + COc1cc2c(Oc3ccc(NC(=O)C4(C(=O)Nc5ccc(F)cc5)CC4)cc3F)ccnc2cc1OCCCN1CCOCC1 [Foretinib] (partner 0.25 µM)
1.23

----------
Test system: NCI-H1793
assay: relative viability (nuclei count vs DMSO), 5 days (fraction); higher = more cells survive
conditions.used: first compound 0.4 µM
Overview of reported relative viability across a group of compounds:
Note: the reply should be a number with no unit written.

Past entries and their recorded results:
compound | experimental.result
Clc1ccc(Nc2nnc(Cc3ccncc3)c3ccccc23)cc1 [Vatalanib] + C[C@]1(O)C[C@@H](c2nc(-c3ccc4ccc(-c5ccccc5)nc4c3)c3c(N)nccn32)C1 [Linsitinib] (partner 1 µM) | 0.816
Clc1ccc(Nc2nnc(Cc3ccncc3)c3ccccc23)cc1 [Vatalanib] + Cc1nc(NC(=O)N2CCC[C@H]2C(N)=O)sc1-c1ccnc(C(C)(C)C(F)(F)F)c1 [Alpelisib] (partner 2 µM) | 0.569

The record that follows has no relative viability shown yet.
Recall the recorded relative viability for Clc1ccc(Nc2nnc(Cc3ccncc3)c3ccccc23)cc1 [Vatalanib] + Cc1cc(Nc2cc(N3CCN(C)CC3)nc(Sc3ccc(NC(=O)C4CC4)cc3)n2)n[nH]1 [Tozasertib] (partner 0.1 µM) with NCI-H1793 and state it.
0.364
